- System: Tylonycteris bat coronavirus HKU4
- applied-conditions: at 100 µM
Reported inhibition values are given for each entry in this list.
Unit % implied. Number only.

compound	inhibition / %
CC(C)(C)NC(=O)C(c1ccsc1)N(C(=O)Cc1cccnc1)C1CC1 (stereo unspecified)	16
CC(C)(C)NC(=O)C(c1ccsc1)N(C(=O)Cn1nnc2ccccc21)c1ccc(NC(=O)c2ccno2)cc1 (stereo unspecified)	76
CC(C)(C)NC(=O)C(c1ccsc1)N(C(=O)c1cccc2c1CCCC2)c1ccc(F)cc1 (stereo unspecified)	17
Cc1ccoc1C(=O)N(c1ccc(C(C)C)cc1)C(C(=O)NC(C)(C)C)c1cccnc1 (stereo unspecified)	36

Note to self: inhibition recorded for COCC(=O)N(c1ccc(C(C)C)cc1)C(C(=O)NC(C)(C)C)c1cccnc1 (stereo unspecified) was 23

Note to self: inhibition recorded for `CC(C)C(=O)Nc1ccc(N(Cc2ccsc2)C(=O)Cn2ccnn2)cc1` was 63

Note to self: inhibition recorded for CC(C)(C)NC(=O)C(c1ccsc1)N(C(=O)c1ccc(C#N)cc1)C1CC1 (stereo unspecified) was 20

Note to self: inhibition recorded for CC(C)(C)NC(=O)C(c1cccnc1)N(C(=O)c1ccco1)C12CC3CC(CC(C3)C1)C2 (stereo unspecified) was 18

###

- Tested on: Tylonycteris bat coronavirus HKU4
- applied-conditions: at 100 µM
measurement-name: inhibition

Note to self: inhibition recorded for CC(C)(C)NC(=O)C(c1cccnc1)N(C(=O)CO)c1ccc(C(C)(C)C)cc1 (centres undefined) was 29%

###

- Test system: Tylonycteris bat coronavirus HKU4
- applied-conditions: at 100 µM
Outcome: 1.0 for inhibition of at least 20%; 0.0 for anything lower.

Worked cases, answers included:
compound	assigned-category
CC(C)c1ccc(N(C(=O)Cc2cccnc2)C(C(=O)NC(C)(C)C)c2cccnc2)cc1 (configuration not stated)	1.0
CC(C)(C)NC(=O)C(c1cccnc1)N(C(=O)c1ccsc1)c1ccc(C(C)(C)C)cc1 (configuration not stated)	0.0
CC(C)(C)NC(=O)C(c1cccnc1)N(C(=O)c1c[nH]cn1)c1ccc(C(C)(C)C)cc1 (racemic)	1.0
CC(C)(C)NC(=O)C(c1ccsc1)N(C(=O)Cn1cnc2ccccc21)c1ccc(NS(C)(=O)=O)cc1 (configuration not stated)	1.0
CC(C)(C)NC(=O)C(c1cccnc1)N(C(=O)c1cccc2c1CCCC2)c1ccc(C(C)(C)C)cc1 (configuration not stated)	1.0
O=C(NCc1ccccc1)C(c1cccc(F)c1)N(C(=O)Cn1nnc2ccccc21)C1CC2CCC1C2 (configuration not stated)	0.0
CC(C)(C)NC(=O)C(c1cccnc1)N(C(=O)Cc1cccc2ccccc12)c1ccc(C(C)(C)C)cc1 (configuration not stated)	1.0
Cc1nccn1CC(=O)N(c1ccc(N)cc1)C(C(=O)NC(C)(C)C)c1ccsc1 (configuration not stated)	0.0

Test whether the compound CC(C)c1ccc(N(C(=O)Cc2c[nH]c3ccccc23)C(C(=O)NC(C)(C)C)c2cccnc2)cc1 (configuration not stated) records inhibition of 20% or higher.
1.0

Test whether the compound CC(C)(C)NC(=O)C(c1cccnc1)N(C(=O)Cc1c[nH]c2ccccc12)c1ccc(OCF)cc1 (configuration not stated) records inhibition of 20% or higher.
1.0

Test whether the compound O=C(NCc1ccccc1)C(c1cccc(F)c1)N(C(=O)Cn1nnc2ccccc21)C12CC3CC(CC(C3)C1)C2 (configuration not stated) records inhibition of 20% or higher.
0.0

###

- System: Tylonycteris bat coronavirus HKU4
- applied-conditions: at 100 µM
Outcome: Criterion met for inhibition of at least 20%; Criterion not met for anything lower.

Worked cases, answers included:
molecule	assigned-category
CC(C)(C)NC(=O)C(c1ccsc1)N(C(=O)Cc1cccc2ccccc12)c1ccc(C(C)(C)C)cc1 (stereo not drawn)	Criterion not met
CC(C)(C)NC(=O)C(c1cccnc1)N(C(=O)c1ccco1)c1ccc(-c2cccc(C#N)c2)cc1 (stereo not drawn)	Criterion not met
CC(C)(C)NC(=O)C(c1cccnc1)N(C(=O)c1ccc(F)cc1)c1ccc(C(C)(C)C)cc1 (stereo not drawn)	Criterion met
CC(C)(C)NC(=O)C(c1cccnc1)N(C(=O)c1cccnc1)c1ccc(C(C)(C)C)cc1 (stereo not drawn)	Criterion not met
CC(C)(C)NC(=O)C(c1cccnc1)N(C(=O)c1ccc(Cl)o1)c1ccc(C(C)(C)C)cc1 (stereo not drawn)	Criterion not met

Test whether the molecule Cc1ccc(C(C(=O)NC(C)(C)C)N(C(=O)c2ccco2)c2ccc(C(C)(C)C)cc2)cn1 (stereo not drawn) records inhibition of 20% or higher.
Criterion not met

Test whether the molecule Cn1cnc(C(=O)N(c2ccc(C(C)(C)C)cc2)C(C(=O)NC(C)(C)C)c2cccnc2)c1 (stereo not drawn) records inhibition of 20% or higher.
Criterion met

Test whether the molecule `COc1ncccc1-c1ccc(N(Cc2ccsc2)C(=O)Cn2nnc3ccccc32)cc1` records inhibition of 20% or higher.
Criterion met

Test whether the molecule CC(C)c1ccc(N(C(=O)c2ccc(C(F)(F)F)nc2)C(C(=O)NC(C)(C)C)c2cccnc2)cc1 (stereo not drawn) records inhibition of 20% or higher.
Criterion not met

Test whether the molecule CC(C)(C)NC(=O)C(c1c[nH]nn1)N(C(=O)c1ccco1)c1ccc(C(C)(C)C)cc1 (stereo not drawn) records inhibition of 20% or higher.
Criterion not met

Test whether the molecule CC(C)(C)NC(=O)C(c1cccnc1)N(C(=O)c1ccco1)c1ccc(Cc2ccccc2)cc1 (stereo not drawn) records inhibition of 20% or higher.
Criterion not met

Test whether the molecule CC(C)(C)NC(=O)C(c1cccnc1)N(C(=O)Cc1cccc2ccccc12)C1CC1 (stereo not drawn) records inhibition of 20% or higher.
Criterion not met

Test whether the molecule Cc1noc(C)c1-c1ccc(N(C(=O)c2ccco2)C(C(=O)NC(C)(C)C)c2cccnc2)cc1 (stereo not drawn) records inhibition of 20% or higher.
Criterion met

Test whether the molecule CC(C)(C)NC(=O)C(c1cccnc1)N(C(=O)c1ccc(O)cc1)c1ccc(C(C)(C)C)cc1 (stereo not drawn) records inhibition of 20% or higher.
Criterion not met

###

- System: Tylonycteris bat coronavirus HKU4
- applied-conditions: at 100 µM
Reported inhibition values are given for each entry in this list.
Unit % implied. Number only.

These recorded examples may help you get a feel for the data.
compound	inhibition, %
COc1cccc(Oc2ccc(N(C(=O)c3ccco3)C(C(=O)NC(C)(C)C)c3cccnc3)cc2)c1 (stereo not drawn)	18
Cc1nc2ccccc2n1CC(=O)N(c1ccc(NS(C)(=O)=O)cc1)C(C(=O)NC(C)(C)C)c1ccsc1 (stereo not drawn)	13

Next item in the queue.
Note to self: inhibition recorded for CC(C)(C)NC(=O)C(c1ccsc1)N(C(=O)Cn1nnc2ccccc21)c1ccc(NC(=O)C2CCCCC2)cc1 (stereo not drawn) was 21

###

- Test system: Tylonycteris bat coronavirus HKU4
- applied-conditions: at 100 µM
Outcome: Condition met for inhibition of at least 30%; Condition not met for anything lower.

compound	assigned-category
CCC(C)Oc1ccc(N(C(=O)c2ccco2)C(C(=O)NC(C)(C)C)c2cccnc2)cc1 (stereo unspecified)	Condition not met
O=C(Cn1nnc2ccccc21)N(Cc1ccsc1)c1ccc(-c2cccnc2)cc1	Condition met
CC(C)(C)NC(=O)C(c1ccsc1)N(C(=O)Cn1nnc2ccccc21)c1ccc(C(C)(C)C)cc1 (stereo unspecified)	Condition not met

Test whether the compound CC(C)(C)NC(=O)C(c1cccnc1)N(C(=O)c1ccc(C(F)(F)F)cn1)C1CC1 (stereo unspecified) records inhibition of 30% or higher.
Condition met

Test whether the compound CC(C)(C)NC(=O)C(c1ccsc1)N(C(=O)Cn1nnc2ccccc21)c1ccc(NC(=O)C2CCC2)cc1 (stereo unspecified) records inhibition of 30% or higher.
Condition not met

Test whether the compound CC(C)(C)NC(=O)C(c1cccnc1)N(C(=O)c1ccc(C(F)(F)F)nc1)c1ccc(C(C)(C)C)cc1 (stereo unspecified) records inhibition of 30% or higher.
Condition not met

Test whether the compound CC(C)(C)NC(=O)C(c1ccsc1)N(C(=O)c1n[nH]c2ccccc12)c1ccc(F)cc1 (stereo unspecified) records inhibition of 30% or higher.
Condition not met

Test whether the compound `CC(C)(C)NC(=O)[C@@H](c1cccnc1)N(C(=O)c1c[nH]cn1)c1ccc(C(C)(C)C)cc1` records inhibition of 30% or higher.
Condition met

Test whether the compound CCC(=O)Nc1ccc(N(C(=O)Cn2nnc3ccccc32)C(C(=O)NC(C)(C)C)c2ccsc2)cc1 (stereo unspecified) records inhibition of 30% or higher.
Condition met

Test whether the compound CC(C)(C)NC(=O)C(c1ccsc1)N(C(=O)Cn1cnc2ccccc21)c1ccc(C(C)(C)C)cc1 (stereo unspecified) records inhibition of 30% or higher.
Condition not met

Test whether the compound `O=C(Cn1nnc2ccccc21)N(Cc1ccsc1)c1ccc(-c2ccncc2)cc1` records inhibition of 30% or higher.
Condition met

###

- System: Tylonycteris bat coronavirus HKU4
- applied-conditions: at 100 µM
measurement-name: inhibition
// unit must come after the numeric part

Note to self: inhibition recorded for CC(=O)Nc1ccc(N(C(=O)Cn2cc([Si](C)(C)C)nn2)C(C(=O)NC(C)(C)C)c2ccsc2)cc1 (centres undefined) was 20%

Note to self: inhibition recorded for CC(C)(C)NC(=O)C(c1cccnc1)N(C(=O)c1cc[nH]n1)c1ccc(C(C)(C)C)cc1 (stereo in doubt; 53B) was 28%

Note to self: inhibition recorded for CC(C)(C)NC(=O)C(c1cccnc1)N(C(=O)Cc1cnc[nH]1)c1ccc(C(C)(C)C)cc1 (centres undefined) was 24%

Note to self: inhibition recorded for CC(C)(C)NC(=O)C(c1cccnc1)N(C(=O)c1coc2ccccc12)c1ccc(C(C)(C)C)cc1 (centres undefined) was 19%

Note to self: inhibition recorded for CC(C)c1ccc(N(C(=O)c2ccc(C#N)cc2)C(C(=O)NC(C)(C)C)c2ccsc2)cc1 (centres undefined) was 21%

Note to self: inhibition recorded for `COCCC(=O)Nc1ccc(N(Cc2ccsc2)C(=O)Cn2nnc3ccccc32)cc1` was 94%

Note to self: inhibition recorded for CC(C)(C)NC(=O)C(c1cccnc1)N(C(=O)c1ccco1)c1ccc(-c2cccc(F)c2F)cc1 (centres undefined) was 18%

Note to self: inhibition recorded for `CNc1ccc(N(Cc2ccsc2)C(=O)Cn2nnc3ccccc32)cc1` was 91%

Note to self: inhibition recorded for CC(C)(C)NC(=O)C(c1cccnc1)N(C(=O)c1ccco1)c1ccc(-c2ccccn2)cc1 (centres undefined) was 15%

Note to self: inhibition recorded for CC(C)(C)NC(=O)C(c1ccsc1)N(C(=O)c1ccco1)c1ccc(OC(F)F)cc1 (centres undefined) was 13%

Note to self: inhibition recorded for CC(C)(C)NC(=O)C(c1cccnc1)N(C(=O)c1ccco1)C1CC2CCC1C2 (centres undefined) was 16%

Note to self: inhibition recorded for COc1cccc(C(=O)N(c2ccc(C(C)(C)C)cc2)C(C(=O)NC(C)(C)C)c2cccnc2)c1 (centres undefined) was 17%

Note to self: inhibition recorded for CC(C)(C)NC(=O)C(c1cccnc1)N(C(=O)c1ccc(C(F)(F)F)cn1)c1ccc(F)cc1 (centres undefined) was 29%

Note to self: inhibition recorded for CC(C)(C)NC(=O)C(c1cccnc1)N(C(=O)c1cccc2c1CCCC2)C1CC1 (centres undefined) was 18%
